Target: BACE1 in primary mouse cortical neurons (mouse, UniProt P56818 46-501)
Sequence (P56818 46-501): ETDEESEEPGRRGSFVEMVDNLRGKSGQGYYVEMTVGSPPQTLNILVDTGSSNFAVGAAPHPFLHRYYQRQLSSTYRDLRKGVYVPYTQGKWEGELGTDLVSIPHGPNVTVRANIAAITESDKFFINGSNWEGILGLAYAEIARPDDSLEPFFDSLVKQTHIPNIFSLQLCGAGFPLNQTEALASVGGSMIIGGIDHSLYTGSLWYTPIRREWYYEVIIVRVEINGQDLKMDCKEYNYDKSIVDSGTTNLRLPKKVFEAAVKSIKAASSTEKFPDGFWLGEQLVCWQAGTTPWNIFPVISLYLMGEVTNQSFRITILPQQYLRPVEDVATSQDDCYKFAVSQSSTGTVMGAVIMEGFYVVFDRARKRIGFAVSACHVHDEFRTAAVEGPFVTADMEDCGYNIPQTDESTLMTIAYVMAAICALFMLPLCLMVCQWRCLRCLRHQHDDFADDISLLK
Assay: cell-based or functional assay
IC50, Abeta x-40 in mouse cortical neurons reference
Express it in nM; write the number only.

| binder | quantitative-readout |
| --- | --- |
| 5932 (antibody, V domains shown, anti-BACE1 IgG) VH: QLQLQESGPGLVKPSETLSLTCTVSGGSISRGSYYWGWIRQPPGKGLEWIGMIYYSGSTWYNPSLKSRVTISVDTSKNQFSLKLSSVTAADTAVYYCARVGHGISYFDLWGRGTLVTVSS VL: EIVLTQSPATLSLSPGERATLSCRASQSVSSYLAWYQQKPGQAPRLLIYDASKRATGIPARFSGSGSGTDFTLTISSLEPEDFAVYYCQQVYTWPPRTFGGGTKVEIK | 6.26 |
| 5990 (antibody, V domains shown, anti-BACE1 IgG) VH: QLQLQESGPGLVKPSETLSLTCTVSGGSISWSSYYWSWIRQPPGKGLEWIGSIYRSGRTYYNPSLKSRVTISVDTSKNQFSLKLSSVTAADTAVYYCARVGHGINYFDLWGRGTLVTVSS VL: EIVLTQSPATLSLSPGERATLSCRASRSVNSYLAWYQQKPGQAPRLLIYDASKRATGIPARFSGSGSGTDFTLTISSLEPEDFAVYYCQQVYTWPPRTFGGGTKVEIK | 0.53 |
| 6276 (antibody, V domains shown, anti-BACE1 IgG) VH: QVQLVQSGAEVKKPGSSVKVSCKASGGTFRGYAISWVRQAPGQGLEWMGNIIPGLSTANYAQKFQGRVTITADESTSTAYMELSSLRSEDTAVYYCARSGGTKYGMLDVWGQGTMVTVSS VL: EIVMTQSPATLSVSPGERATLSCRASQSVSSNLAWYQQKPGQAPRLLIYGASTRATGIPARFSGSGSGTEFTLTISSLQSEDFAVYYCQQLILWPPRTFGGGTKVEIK | 7.4 |
| 6297 (antibody, V domains shown, anti-BACE1 IgG) VH: QLQLQESGPGLVKPSETLSLTCTVSGGPISSSSYYWGWIRQPPGKGLEWIGNIYYSGSTYYNPSLRGRVTISVDTSKNQFSLKLSSVTAADTAVYYCARLGHGYNYFDLWGRGTLVTVSS VL: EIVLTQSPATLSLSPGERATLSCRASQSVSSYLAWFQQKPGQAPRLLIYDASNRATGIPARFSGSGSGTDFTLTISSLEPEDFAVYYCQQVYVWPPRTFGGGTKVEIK | 3.89 |

Alright, here's another binder for you.
What measured IC50, Abeta x-40 in mouse cortical neurons goes with 6280 (antibody, V domains shown, anti-BACE1 IgG) VH: QLQLQESGPGLVKPSETLSLTCTVSGGSTSSSSYYWGWIRQPPGKGLEWIGSIYRSGSTYYNPSFKSRVTISVDTSKNQFSLKLSSVTAADTAVYYCARVGHGISYFDLWGRGTLVTVSS VL: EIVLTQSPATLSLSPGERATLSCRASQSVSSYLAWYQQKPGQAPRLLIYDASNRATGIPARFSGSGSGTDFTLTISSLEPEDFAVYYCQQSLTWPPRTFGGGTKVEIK ?
8.29
